Data origin, for the record: patent US20220213070A1

# target of assay: TDG (Homo sapiens, UniProt Q13569)
# Sequence (Q13569 whole entry): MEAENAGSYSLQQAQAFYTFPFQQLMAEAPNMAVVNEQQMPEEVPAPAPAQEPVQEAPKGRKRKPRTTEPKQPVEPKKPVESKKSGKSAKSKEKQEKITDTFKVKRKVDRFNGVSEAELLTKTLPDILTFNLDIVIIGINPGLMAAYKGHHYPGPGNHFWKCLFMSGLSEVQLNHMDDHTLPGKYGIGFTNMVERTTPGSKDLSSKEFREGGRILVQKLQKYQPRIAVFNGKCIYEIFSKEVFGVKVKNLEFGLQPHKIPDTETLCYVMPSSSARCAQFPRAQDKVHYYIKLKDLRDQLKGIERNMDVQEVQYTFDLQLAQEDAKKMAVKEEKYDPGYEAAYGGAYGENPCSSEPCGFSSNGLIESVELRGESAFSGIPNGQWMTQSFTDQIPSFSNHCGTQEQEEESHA
pIC50: −log10 of the molar value.
measured property: pIC50

The examples below pair each entry with its known result.
Form entry - test system: TDG (Homo sapiens, UniProt Q13569); read-out: pIC50; compound: O=C(CCN1Cc2ccccc2C1)c1ccc2c(c1)CCCN2
< 5.30

Form entry - test system: TDG (Homo sapiens, UniProt Q13569); read-out: pIC50; compound: O=C(CCN1CC2C=CC(c3ccncc3)=CC2C1)c1ccc2c(c1)OCCO2 (stereo not drawn)
< 5.30

Form entry - test system: TDG (Homo sapiens, UniProt Q13569); read-out: pIC50; compound: O=C(CCNC1=NCc2ccccc21)c1ccc2c(c1)OCCO2
< 5.30

---
Form entry - test system: TDG (Homo sapiens, UniProt Q13569); read-out: pIC50; compound: O=C(CCN1CCC(c2ccc([N+](=O)[O-])cc2)C1)c1ccc2c(c1)OCCO2 (stereo not drawn)
≥ 5.30

Form entry - test system: TDG (Homo sapiens, UniProt Q13569); read-out: pIC50; compound: CC(=O)c1ccc2c(c1)CN(CCC(=O)c1ccc3c(c1)OCCO3)C2
≥ 5.30

###

# target of assay: TDG (Homo sapiens, UniProt Q13569)
measured property: IC50

Given the entry C=CC(=O)c1ccc2c(c1)OCCO2 [Compound 42] , report its measured IC50.
≤ 5 µM

---
Given the entry COc1ccc2cn(CCC(=O)c3ccc4c(c3)OCCO4)nc2c1 [Compound 24] , report its measured IC50.
> 5 µM

Given the entry O=C(CCn1cc(-c2ccccc2)cn1)c1ccc2c(c1)OCCO2 [Compound 28] , report its measured IC50.
> 5 µM

Given the entry O=C(CCN1CCC(c2ccc(C(F)(F)F)cc2)C1)c1ccc2c(c1)OCCO2 (stereo not drawn) [Compound 45] , report its measured IC50.
> 5 µM

Given the entry O=C(CCN1CCN(c2ncccn2)CC1)c1ccc2c(c1)OCCO2 [Compound 19] , report its measured IC50.
> 5 µM

Given the entry O=C(CCn1ccc(-c2ccc(F)cc2)cc1=O)c1ccc2c(c1)OCCO2 [Compound 18] , report its measured IC50.
≤ 5 µM

Given the entry OC(CCN1Cc2ccccc2C1)c1ccc2c(c1)OCCO2 (stereo not drawn) [Compound 10] , report its measured IC50.
> 5 µM

Given the entry O=C(CCN1CCc2ccccc21)c1ccc2c(c1)OCCO2 [Compound 11] , report its measured IC50.
> 5 µM

Given the entry CC(C)(C)OC(=O)NCC1(O)CN(CCC(=O)c2ccc3c(c2)OCCO3)C1 [Compound 23] , report its measured IC50.
> 5 µM

Given the entry Nc1ccc2c(c1)CN(CCC(=O)c1ccc3c(c1)OCCO3)C2 [Compound 9] , report its measured IC50.
≤ 5 µM

Given the entry O=C(CCNc1ccc2cnccc2c1)c1ccc2c(c1)OCCO2 [Compound 20] , report its measured IC50.
> 5 µM

Given the entry N#Cc1ccc2c(c1)CN(CCC(=O)c1ccc3c(c1)OCCO3)C2 [Compound 8] , report its measured IC50.
≤ 5 µM

Given the entry O=C(CCN1Cc2ccccc2C1)c1ccc2c(c1)CCO2 [Compound 34] , report its measured IC50.
> 5 µM

Given the entry c1ccc2c(c1)CN(CCCc1ccc3c(c1)OCCO3)C2 [Compound 29] , report its measured IC50.
> 5 µM

Given the entry O=C(CCN1Cc2ccccc2C1)c1ccc2c(c1)OCO2 [Compound 35] , report its measured IC50.
≤ 5 µM

Given the entry O=C(CCN1Cc2ccc(-c3ccc(F)cc3)cc2C1)c1ccc2c(c1)OCCO2 [Compound 40] , report its measured IC50.
> 5 µM

Given the entry O=C(CCN1Cc2ccccc2C1)c1ccc2c(c1)C(=O)CCO2 [Compound 36] , report its measured IC50.
≤ 5 µM

Given the entry O=C(CN1Cc2ccccc2C1)c1ccc2c(c1)OCCO2 [Compound 32] , report its measured IC50.
> 5 µM
